Target: AgAbp1
Assay: SPOT peptide array binding signal intensity (averaged, normalized) (arbitrary units (background-subtracted, floor 0; scale differs between SH3 domains)); higher = stronger binding of the SH3 domain to the peptide
Readings of SPOT peptide array binding signal intensity for the listed binders
The response must contain the number and no unit.

Use these answered entries as a reference point.
binder	experimental.value
NMLKKKPLKKPLKRF	2990
FVLRYYILIPHEQWD	6
SLSRRRFSLPSMPNV	83.5

Can you look up the measured SPOT peptide array binding signal intensity of VGFRLALKFPSRITG for me?
156

Can you look up the measured SPOT peptide array binding signal intensity of SKSRLLIELPEGFFT for me?
2

Can you look up the measured SPOT peptide array binding signal intensity of RRRDFGAPANKRPRR for me?
45

Can you look up the measured SPOT peptide array binding signal intensity of IPSRPAPKPPSSASA for me?
14

Can you look up the measured SPOT peptide array binding signal intensity of QRIRKIPGIPLMSVG for me?
26

Can you look up the measured SPOT peptide array binding signal intensity of KWVRRPKLMTPLTFS for me?
205

Can you look up the measured SPOT peptide array binding signal intensity of RTRRRPPPPPIPSTQ for me?
334

Can you look up the measured SPOT peptide array binding signal intensity of GQYRRTIVIPRRFFT for me?
24.5

Can you look up the measured SPOT peptide array binding signal intensity of RPKRRAPPPVPKKPS for me?
5860

Source listed as the supplement of paper PMC4466140.
